B1: SPACA3 (parent)
chain: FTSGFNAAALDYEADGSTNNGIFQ

Variants of: B1
Assay: protein stability index of a GFP-peptide fusion (GPS, HEK-293T) (PSI 1-6); higher = more stable;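 note: lentivirally expressed fusions sorted by FACS into six bins by GFP to DsRed ratio, PSI derived from sequencing read proportions per bin multiplied by bin number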
Conditions: c terminus: a fixed tail appended
PROPERTY_LABEL: protein stability index

The variant listed as A7Q shows protein stability index equal to 2.02

The variant listed as E13M shows protein stability index equal to 1.82

The variant listed as A9M shows protein stability index equal to 2.08

The variant listed as E13G shows protein stability index equal to 1.44

The variant listed as F5C shows protein stability index equal to 3.03

The variant listed as F1I shows protein stability index equal to 3.95

The variant listed as S3T shows protein stability index equal to 1.84

The variant listed as A9L shows protein stability index equal to 1.78

The variant listed as G4C shows protein stability index equal to 1.94

The variant listed as N20Q shows protein stability index equal to 1.84

The variant listed as A9E shows protein stability index equal to 2.46

The variant listed as T18N shows protein stability index equal to 1.7

The variant listed as G21M shows protein stability index equal to 1.51

The variant listed as F5G shows protein stability index equal to 3.63

The variant listed as Y12R shows protein stability index equal to 1.78

The variant listed as Y12A shows protein stability index equal to 2.09

The variant listed as F5H shows protein stability index equal to 3.55

The variant listed as F1R shows protein stability index equal to 4.61

The variant listed as S17M shows protein stability index equal to 1.48

The variant listed as G21E shows protein stability index equal to 2.28

The variant listed as I22H shows protein stability index equal to 1.95

The variant listed as A8T shows protein stability index equal to 1.98

The variant listed as G21Q shows protein stability index equal to 1.7

The variant listed as E13V shows protein stability index equal to 2.08

The variant listed as G21I shows protein stability index equal to 1.51

The variant listed as A7S shows protein stability index equal to 1.92

The variant listed as A8S shows protein stability index equal to 1.99

The variant listed as A14D shows protein stability index equal to 2.13

The variant listed as S3A shows protein stability index equal to 2.37

The variant listed as F1K shows protein stability index equal to 4.54

The variant listed as G21S shows protein stability index equal to 1.72

The variant listed as S17L shows protein stability index equal to 1.71

The variant listed as L10M shows protein stability index equal to 2.08

The variant listed as A14Q shows protein stability index equal to 2.1

The variant listed as S17V shows protein stability index equal to 2.06

The variant listed as D11V shows protein stability index equal to 2.6

The variant listed as N19W shows protein stability index equal to 1.55

The variant listed as F5P shows protein stability index equal to 3.81

The variant listed as N6L shows protein stability index equal to 2.78

The variant listed as F23H shows protein stability index equal to 2.42

The variant listed as I22V shows protein stability index equal to 1.69

The variant listed as N6H shows protein stability index equal to 2.38

The variant listed as G4V shows protein stability index equal to 2.21

The variant listed as N6C shows protein stability index equal to 3

The variant listed as A14M shows protein stability index equal to 2.02

The variant listed as I22G shows protein stability index equal to 2.25

The variant listed as G4L shows protein stability index equal to 1.7

The variant listed as G4T shows protein stability index equal to 2.42

The variant listed as S17T shows protein stability index equal to 2.19

The variant listed as G16P shows protein stability index equal to 1.97

The variant listed as Y12L shows protein stability index equal to 1.74

The variant listed as S17H shows protein stability index equal to 2.31
